target: Recombinant Human Siglec-3/CD33 protein (His-CD33) (Homo sapiens (Human), UniProt P20138); assay: Differential scanning fluorimetry (DSF) thermal shift assay; assay type: binding; conditions: difference in thermal melt of CD33 protein (0.5 μM) with 50 μM compound
Sequence (P20138 18-259): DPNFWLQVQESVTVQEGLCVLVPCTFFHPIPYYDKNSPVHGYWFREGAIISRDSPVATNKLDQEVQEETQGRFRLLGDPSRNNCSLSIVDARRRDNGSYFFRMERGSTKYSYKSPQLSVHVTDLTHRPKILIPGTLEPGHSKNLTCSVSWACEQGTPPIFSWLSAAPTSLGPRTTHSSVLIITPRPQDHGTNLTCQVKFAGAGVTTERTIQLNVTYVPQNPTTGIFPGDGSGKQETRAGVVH
REPORTED ENDPOINT: DSF (dTmD) (°C)
Report the value in °C with no unit label.

Illustrative cases are given below, each with its answer.
INSERT INTO results (molecule, endpoint_unit, recorded_number) VALUES
  ('Cc1cc(C(=O)NC[C@@H](O)[C@@H](O)[C@@H]2O[C@@](CC(O)[C@@H](O)c3cccc(NC(=O)OC(C)(C)C)c3)(C(=O)O)C[C@H](O)[C@H]2NC(=O)Cn2cc(C3CCCCC3)nn2)cc(C)c1O (some centres unmarked)', '°C', 1.6),
  ('CC(=O)N[C@H]1[C@H]2O[C@](C(=O)O)(C/C=C/CCC[C@@H](NC(=O)[C@H]3CCCOC3)c3cccc(c3)COc3c(C)cc(cc3C)C(=O)NC[C@@H](O)[C@H]2O)C[C@@H]1O', '°C', 1.3),
  ('CC(=O)N[C@H]1[C@H]([C@H](O)[C@H](O)CNC(=O)c2cc(C)c(O)c(C)c2)O[C@@](CC2OC(C)(C)O[C@H]2c2cccc(NC(=O)CC(C)(C)C)c2)(C(=O)O)C[C@@H]1O (some centres unmarked)', '°C', 4.9),
  ('CC(=O)N[C@H]1[C@H]([C@H](O)[C@H](O)CNC(=O)c2cc(C)c(O)c(C)c2)O[C@@](C/C=C/c2cccc(CNC(=O)c3ccc(Nc4ncccn4)cc3)c2)(C(=O)O)C[C@@H]1O', '°C', 6.2);

Next:
Please report the recorded DSF (dTmD) for CC(=O)N[C@H]1[C@H]([C@H](O)[C@H](O)CNC(=O)c2cc(C)c(O)c(C)c2)O[C@@](C/C=C/c2cccc(CNC(=O)C3CCC(Nc4ncccn4)CC3)c2)(C(=O)O)C[C@@H]1O (some centres unmarked) .
9.6

====

target: Recombinant Human Siglec-3/CD33 protein (His-CD33) (Homo sapiens (Human), UniProt P20138); test: Differential scanning fluorimetry (DSF) thermal shift assay; assay type: binding; conditions: thermal melt shift of 0.5 μM CD33 protein with 50 μM compound
REPORTED ENDPOINT: DSF (dTmD)
Just the number, please.

Illustrative cases are given below, each with its answer.
INSERT INTO measurements (compound, recorded_number) VALUES
  ('CC(=O)N[C@H]1[C@H]([C@H](O)[C@H](O)CNC(=O)c2cc(C)c(O)c(C)c2)O[C@@](CCN2CCOC[C@@]23CCN(C(=O)NC(C)C(F)(F)F)C3)(C(=O)O)C[C@@H]1O (stereo partly drawn) [A-044]', 11.5),
  ('C=C[C@H]1CN(C(=O)OC(C)(C)C)C[C@@]1(C)NCC[C@]1(C(=O)O)C[C@H](O)[C@@H](NC(C)=O)[C@H]([C@H](O)[C@H](O)CNC(=O)c2cc(C)c(O)c(C)c2)O1 [A-034]', 6.7);

Next:
Checklist item: DSF (dTmD) tested on Recombinant Human Siglec-3/CD33 protein (His-CD33) (Homo sapiens (Human), UniProt P20138), entry CC(=O)N[C@H]1[C@H]([C@H](O)[C@H](O)CNC(=O)c2cc(C)c(O)c(C)c2)O[C@@](CCN2CCOC[C@@]23CCN(C(=O)N[C@H](C)c2ccccc2)C3)(C(=O)O)C[C@@H]1O [A-047] , value?
12.9

====

molecular target: Recombinant Human Siglec-3/CD33 protein (His-CD33) (Homo sapiens (Human)); assay: Differential scanning fluorimetry (DSF) thermal shift assay; format: binding; details: difference in thermal melt of CD33 protein (0.5 μM) with 50 μM compound
// reported DSF (dTmD) per item
Report the value in °C with no unit label.

INSERT INTO results (compound, assay_target, reported_endpoint, recorded_number) VALUES
  ('CC(=O)N[C@H]1[C@H]([C@H](O)[C@H](O)CNC(=O)c2cc(Cl)c(O)c(Cl)c2)O[C@@](CC2OC(C)(C)O[C@H]2c2cccc(C(=O)NCc3ccccc3)c2)(C(=O)O)C[C@@H]1O (stereo partly shown) [A-321]', 'Recombinant Human Siglec-3/CD33 protein (His-CD33) (Homo sapiens (Human))', 'DSF (dTmD)', 7.2);

Please report the recorded DSF (dTmD) for Cc1cc(C(=O)NC[C@@H](O)[C@@H](O)[C@@H]2O[C@@](OC3CCCCC3NC(=O)Cn3cc(CNC(=O)N4CCOCC4)nn3)(C(=O)O)C[C@H](O)[C@H]2NC(=O)Cn2cc(C3CCCCC3)nn2)cc(C)c1O (stereo partly shown) [A-334] .
2.8

====

target: Recombinant Human Siglec-3/CD33 protein (His-CD33) (Homo sapiens (Human), UniProt P20138); assay: Differential scanning fluorimetry (DSF) thermal shift assay; type: binding; details: thermal melt shift of 0.5 μM CD33 protein with 50 μM compound
REPORTED ENDPOINT: DSF (dTmD)
Just the number, please.

Please report the recorded DSF (dTmD) for CC(=O)N[C@H]1[C@H]([C@H](O)[C@H](O)CNC(=O)c2cc(C)c(O)c(C)c2)O[C@@](CCN2CCOC[C@@]23CCN(C(=O)NC2(c4ccc(F)cc4)CCCC2)C3)(C(=O)O)C[C@@H]1O [A-057] .
9.7

====

target: Recombinant human CD33 protein (Homo sapiens (Human)); assay: CD33 competitive binding assay for HTS drug screen (fluorescent multivalent sialic acid probe)
// reported pEC50 per item
Reminder that pEC50 means the negative base-10 logarithm of the concentration expressed in mol/L.

INSERT INTO assay_data (line_notation, assay_target, recorded_number) VALUES
  ('CC(=O)N[C@H]1[C@H]([C@H](O)[C@H](O)CNC(=O)c2cc(C)c3[nH]c(CO)cc3c2)O[C@@](CCN2CCOC[C@@]23CCN(C(=O)OC(C)(C)C)C3)(C(=O)O)C[C@@H]1O', 'Recombinant human CD33 protein (Homo sapiens (Human))', 7.85);

Please report the recorded pEC50 for `CC(=O)N[C@H]1[C@H]([C@H](O)[C@H](O)CNC(=O)c2cc(C)c(O)c(C)c2)O[C@@](CCN2CCOC[C@@]23CCN(C(=O)NC(C)(C)C(C)C)C3)(C(=O)O)C[C@@H]1O` .
7.70

Please report the recorded pEC50 for `Cc1cc2cc(C)c1OCCCNC(=O)CCCCCC[C@]1(C(=O)O)C[C@H](O)[C@@H](NC(=O)Cn3cc(C4CCCCC4)nn3)[C@@H](O1)[C@H](O)[C@H](O)CNC2=O` .
4.67

Please report the recorded pEC50 for `CC(=O)N[C@H]1[C@H]([C@H](O)[C@H](O)CNC(=O)c2ccccc2)O[C@@](CCN2CCOC[C@@]23CCN(C(=O)OC(C)(C)C)C3)(C(=O)O)C[C@@H]1O` .
6.00

Please report the recorded pEC50 for `COc1cc(C(=O)NCc2cccc(/C=C/C[C@]3(C(=O)O)C[C@H](O)[C@@H](NC(=O)Cn4cc(C5CCCCC5)nn4)[C@H]([C@H](O)[C@H](O)CNC(=O)c4cc(C)c(O)c(C)c4)O3)c2)ccc1O` .
4.98

Please report the recorded pEC50 for `CC(=O)N[C@H]1[C@H]([C@H](O)[C@H](O)CNC(=O)c2cc(C)c(O)c(C)c2)O[C@@](CCN2C[C@H](C)OC[C@@]23CCN(C(=O)OC(C)(C)C)C3)(C(=O)O)C[C@@H]1O` .
8.15

====

molecular target: Recombinant human CD33 protein (Homo sapiens (Human)); assay: CD33 competitive binding assay for HTS drug screen (fluorescent multivalent sialic acid probe)
REPORTED ENDPOINT: pEC50
Reminder that pEC50 means the negative base-10 logarithm of the concentration expressed in mol/L.

Illustrative cases are given below, each with its answer.
INSERT INTO results (compound, recorded_number) VALUES
  ('C/C=C/C=C/C(=O)NC[C@@H](O)[C@@H](O)[C@@H]1O[C@@](CCN2CCOC[C@@]23CCN(C(=O)OC(C)(C)C)C3)(C(=O)O)C[C@H](O)[C@H]1NC(C)=O [A-163]', 6.15),
  ('CC(=O)N[C@H]1[C@H]([C@H](O)[C@H](O)CNC(=O)c2cc(C)c(O)c(C)c2)O[C@@](C/C=C/c2cccc(CNC(=O)c3ccc4[nH]c(C(C)(C)CO)cc4c3)c2)(C(=O)O)C[C@@H]1O [A-249]', 6.65),
  ('Cc1cc2cc(C)c1OCc1cccc(c1)[C@H](NC(=O)C1CCCOC1)CCC/C=C/C[C@]1(C(=O)O)C[C@H](O)[C@@H](NC(=O)Cn3cc(C4CCCCC4)nn3)[C@@H](O1)[C@H](O)[C@H](O)CNC2=O (some centres unmarked) [A-356]', 5.82),
  ('CC(=O)N[C@H]1[C@H]([C@H](O)[C@H](O)CNC(=O)c2cc(C)oc2C(F)(F)F)O[C@@](CCN2CCOC[C@@]23CCN(C(=O)OC(C)(C)C)C3)(C(=O)O)C[C@@H]1O [A-160]', 6.17);

Next:
Please report the recorded pEC50 for Cc1cc(C(=O)NC[C@@H](O)[C@@H](O)[C@@H]2O[C@@](C/C=C/c3ccc4c(c3)C(NC(=O)C3CCCOC3)CC4)(C(=O)O)C[C@H](O)[C@H]2NC(=O)Cn2cc(C3CCCCC3)nn2)cc(C)c1O (some centres unmarked) [A-284] .
5.78
